Hey, just so you know, these numbers are from ChEMBL document CHEMBL1146071.

# Subject Of Test: Growth hormone secretagogue receptor type 1 (Homo sapiens, UniProt Q92847)
# Sequence (Q92847 whole entry): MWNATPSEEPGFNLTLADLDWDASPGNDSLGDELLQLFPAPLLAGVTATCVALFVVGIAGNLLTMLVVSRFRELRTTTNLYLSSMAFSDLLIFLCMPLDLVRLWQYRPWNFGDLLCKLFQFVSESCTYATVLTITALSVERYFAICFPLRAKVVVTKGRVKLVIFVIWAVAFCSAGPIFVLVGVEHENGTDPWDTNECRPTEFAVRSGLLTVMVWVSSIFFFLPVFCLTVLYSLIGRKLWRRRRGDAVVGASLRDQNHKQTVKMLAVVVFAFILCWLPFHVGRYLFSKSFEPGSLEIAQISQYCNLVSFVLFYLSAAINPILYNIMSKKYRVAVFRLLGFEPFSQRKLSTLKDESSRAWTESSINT
# Assay Overview: Displacement of [125I]ghrelin from human GHS receptor expressed in CHOK cells
# Type: cell-based
Give measured pIC50 for each item. Keep answers brief.
Answers are plain numbers, as −log10 of the molar value.

Solved cases (4 shown):
[
  {
    "Molecule": "CCc1nc(N)nc(N)c1-c1ccc(NCc2ccc(S(C)(=O)=O)cc2)cc1",
    "Subject Of Test": "Growth hormone secretagogue receptor type 1 (Homo sapiens, UniProt Q92847)",
    "pIC50": 8.13
  },
  {
    "Molecule": "CS(=O)(=O)c1ccc(COc2ccc(-c3c(N)nc(N)nc3COCc3ccccc3)cc2)cc1",
    "Subject Of Test": "Growth hormone secretagogue receptor type 1 (Homo sapiens, UniProt Q92847)",
    "pIC50": 8.16
  },
  {
    "Molecule": "CCc1nc(N)nc(N)c1-c1ccc(NCc2ccc([N+](=O)[O-])cc2)cc1",
    "Subject Of Test": "Growth hormone secretagogue receptor type 1 (Homo sapiens, UniProt Q92847)",
    "pIC50": 7.96
  },
  {
    "Molecule": "CCc1nc(N)nc(N)c1-c1ccc(NCc2ccc(C(C)O)cc2)cc1 (stereo not given)",
    "Subject Of Test": "Growth hormone secretagogue receptor type 1 (Homo sapiens, UniProt Q92847)",
    "pIC50": 7.89
  }
]

Kindly consider the entry below.
Measured pIC50, Nc1nc(N)c(-c2ccc(NCc3csc(Cl)c3)cc2)c(COCc2ccccc2)n1 : 8.20
